Assay: Pilot PK study of orally applied KB-R7943 in control and STZ-induced diabetic rats (LC-MS/MS)
Type: in vivo, rat
Conditions: Wistar, rat, cortex, po, 10 mg/kg, STZ-diabetic rats, 10 mg/kg p.o. once
MEASURED_ATTRIBUTE: half-life (h)
Report the figure in h without appending any unit label.

q: Find the recorded half-life belonging to `N=C(N)SCCc1ccc(OCc2ccc([N+](=O)[O-])cc2)cc1` and report it.
a: 7.7

----------
Experiment: Pilot PK study of orally applied KB-R7943 in control and STZ-induced diabetic rats (LC-MS/MS)
Type: in vivo, rat
Settings: Wistar, rat, cortex, po, 10 mg/kg, STZ-diabetic rats, 10 mg/kg p.o. once
MEASURED_ATTRIBUTE: Cmax (ng/mL)
Use ng/mL as the unit, but write only the number.

q: Name the reported Cmax value associated with the molecule `N=C(N)SCCc1ccc(OCc2ccc([N+](=O)[O-])cc2)cc1`
a: 103
